Catalogue of T/C values
tested on: P388 leukemia ip, CD2F1 mice, survival T/C; experiment: NCI In Vivo Anticancer Drug Screen. Data for tumor model P388 Leukemia (intraperitoneal) in CD2F1 (CDF1) mice; details: endpoint: median survival time; dose: 100.0 mg/kg/injection; schedule: Q04DX003 (ip); vehicle: saline with Tween-80; higher = longer survival
Inconclusive results and toxic doses are left out.

Request: Lab note: need T/C with P388 leukemia ip, CD2F1 mice, survival T/C for entry CN(C(N)=O)C1CCCC1 , please look it up.
Result: 100 % of control

Request: Lab note: need T/C with P388 leukemia ip, CD2F1 mice, survival T/C for entry C/C(=C/c1cc2c(cc1Br)OCO2)[N+](=O)[O-] , please look it up.
Result: 108 % of control

Request: Lab note: need T/C with P388 leukemia ip, CD2F1 mice, survival T/C for entry O=C(O)C(Cc1ccccc1)N=Cc1ccc(O)cc1 (configuration not stated) , please look it up.
Result: 102 % of control

Request: Lab note: need T/C with P388 leukemia ip, CD2F1 mice, survival T/C for entry Cc1noc(NCc2ccccc2)c1C , please look it up.
Result: 104 % of control

---

Test system: P388 leukemia ip, CD2F1 mice, survival T/C
Test: NCI In Vivo Anticancer Drug Screen. Data for tumor model P388 Leukemia (intraperitoneal) in CD2F1 (CDF1) mice
Details: endpoint: median survival time; dose: 120.0 mg/kg/injection; schedule: Q01DX005 (ip); vehicle: Klucel (hydroxypropylcellulose) (HPC)
Description: The antitumor activity of compounds was measured in mice bearing transplantable tumors. Survival or tumor size were measured and the results are expressed as the measurement made in the treated group (T) divided by the measurement made in the vehicle treated control group (C). The tumor model used in this assay is P388 Leukemia (intraperitoneal) in CD2F1 (CDF1) mice
Inconclusive results and toxic doses are left out. Rule for the calls: active = survival T/C of 150% or more; inactive = T/C below 125% in these data.
Respond with a class label; see 1 (active), -1 (inactive)

Examples from the recorded data:
CCOC1(C)Oc2cc3c(cc2C(c2cc(OC)c(OC)c(OC)c2)C1C)OCO3 (stereo not drawn): -1
CC1(C)SC(C2NC(=O)C(c3ccccc3)NC2=O)NC1C(=O)O (stereo not drawn): -1
COC(=O)c1nc(N)nc(C(=O)OC)c1C(=O)c1ccc(OC)cc1: -1
O=C1CCC(=O)N1CN(Cc1ccccc1)Cc1ccccc1: -1
CCN(CC)C(=O)CCc1ccc(Cl)cc1: -1

Request: Would you mind telling me which call this test gave CC(NS(=O)(=O)N1CCOC1=O)c1ccccc1 (stereo not drawn) ?
Result: -1

---

Catalogue of T/C values
test system: P388 leukemia ip, CD2F1 mice, survival T/C; experiment: NCI In Vivo Anticancer Drug Screen. Data for tumor model P388 Leukemia (intraperitoneal) in CD2F1 (CDF1) mice; settings: endpoint: median survival time; dose: 25.0 mg/kg/injection; schedule: Q01DX009 (ip); vehicle: Klucel (hydroxypropylcellulose) (HPC); higher = longer survival
Toxic doses and inconclusive results are not listed.

Observe how each entry below is paired with its result.
CCOC(=O)C(Cc1ccc(N(CCCl)CCCl)cc1)NC(=O)C(N)CCC(=O)O (stereo not drawn): 196 % of control
Nc1nc(Sc2ccc([N+](=O)[O-])c3nonc23)c2[nH]cnc2n1: 88 % of control

Request: Dear colleague, I am looking for the recorded T/C of the following compound: CCCCOP(=O)(OCCCC)OC(=C(F)F)C(F)(F)P(=O)(OCCCC)OCCCC
Result: 100 % of control

Request: Dear colleague, I am looking for the recorded T/C of the following compound: Cc1cc(N2C(=O)CCSC2=S)ccc1Cl
Result: 119 % of control

Request: Dear colleague, I am looking for the recorded T/C of the following compound: CCOC(=O)/C=C/c1ccc(C(=O)OCC)[nH]1
Result: 101 % of control

Request: Dear colleague, I am looking for the recorded T/C of the following compound: NNC(=O)c1ccccc1Cl
Result: 100 % of control

Request: Dear colleague, I am looking for the recorded T/C of the following compound: O=C1[C@@H]2C3C=CC([C@H]4C(=O)N(CO)C(=O)[C@@H]34)[C@@H]2C(=O)N1CO
Result: 114 % of control

Request: Dear colleague, I am looking for the recorded T/C of the following compound: O=C(O)CCCCCCCCCCNC(=O)CI
Result: 119 % of control
